src = patent EP2085394B1

Measured IC100 Leishmania donovani by item
test system: Leishmania donovani promastigotes; experiment: Antileishmanial activity, 96-well plates; assay type: cell-based; settings: promastigotes, 72 h, 24°C
Your answer should be a plain number; it is taken to be in µg/mL.

Please review the following examples before continuing.
Cc1ncc([N+](=O)[O-])n1CCOc1ccc(C=O)cc1
2000
C[C@@H]1[C@H](O)[C@@H](C)/C=C/C=C/C=C/C=C/C=C/C=C/C=C/[C@H](O[C@@H]2O[C@H](C)[C@@H](O)[C@H](N)[C@@H]2O)C[C@@H]2O[C@](O)(C[C@@H](O)C[C@@H](O)[C@H](O)CC[C@@H](O)C[C@@H](O)CC(=O)O[C@H]1C)C[C@H](O)[C@H]2C(=O)O [Amphotericin B, reference compound]
2.5
Cc1ncc([N+](=O)[O-])n1CCN1CCN(CCO)CC1
250

[Q] Provide one value: measured IC100 Leishmania donovani of Cc1ncc([N+](=O)[O-])n1CCNS(=O)(=O)c1sc(Cl)cc1Br
[A] 2000
